Cited source: ChEMBL document CHEMBL5226353

# Tested on: PC-3
# measurement_protocol: Cytotoxicity against human PC-3 cells assessed as inhibition of cell growth incubated for 48 hrs by MTT assay
# Type: functional, cell-based
# run_conditions: PC-3, 48 h
Where a name gives a salt, the structure may show the parent alone.
observation_type: pIC50
On this scale, pIC50 is minus log10 of a concentration expressed in M (mol/L).

Below, each entry is followed by its recorded pIC50 result.
Which pIC50 is reported for this compound? `CC(C)=CCC[C@@H](C)[C@H]1[C@H](O)C[C@@]2(C)[C@@H]3CC[C@H]4C(C)(C)[C@@H](O)CC[C@]4(O)CC3=CC[C@]12C`
5.19

Fill in the blank: the reported pIC50 of `C=C(C[C@@H](C)[C@H]1[C@H](O)C[C@@]2(C)[C@@H]3CC[C@H]4C(C)(C)[C@@H](O)CC[C@]4(O)CC3=CC[C@]12C)C(C)C` is ____.
5.07

More entries:
pIC50 lookup needed for COc1cccc2c1C(=O)c1c(O)c3c(c(O)c1C2=O)C[C@@](O)(C(=O)CO)C[C@@H]3O[C@H]1C[C@H](N)[C@H](O)[C@H](C)O1 [DOXORUBICIN HYDROCHLORIDE] , thanks.
6.40

Give the measured pIC50 of `C=C(C)C(=O)CC[C@@H](C)[C@H]1[C@H](O)C[C@@]2(C)[C@@H]3CC[C@H]4C(C)(C)[C@@H](O)CC[C@]4(O)CC3=CC[C@]12C` .
5.38
